For each entry below, report its Mean total exposure, AUC(0–144 h) value.
assay: Metabolite profiling in plasma by HPLC–LSC; type: in vivo, human; details: plasma, HPLC–LSC
Form field: result (number plus unit)

Entry CNC(=O)c1cc(Oc2ccc(NC(=O)Nc3ccc(Cl)c(C(F)(F)F)c3)c(F)c2)ccn1 [Regorafenib] ; Mean total exposure, AUC(0–144 h) = 46.89 mg-Eq·h/L

Entry CNC(=O)c1cc(Oc2ccc(NC(=O)Nc3ccc(Cl)c(C(F)(F)F)c3)c(F)c2)cc[n+]1[O-] [M-2] — recorded Mean total exposure, AUC(0–144 h) = 20.16 mg-Eq·h/L

Documented Mean total exposure, AUC(0–144 h) of NC(=O)c1cc(Oc2ccc(NC(=O)Nc3ccc(Cl)c(C(F)(F)F)c3)c(F)c2)cc[n+]1[O-] [M-5] : 2.00 mg-Eq·h/L

In plain terms, CNC(=O)c1cc(Oc2ccc(NC(=O)N(c3ccc(Cl)c(C(F)(F)F)c3)C3OC(C(=O)O)C(O)C(O)C3O)c(F)c2)ccn1 (stereo not shown) [M-7] has a documented Mean total exposure, AUC(0–144 h) of 2.43 mg-Eq·h/L

* * *

assay: Pharmacokinetics of regorafenib in plasma (HPLC–MS/MS) after a single oral 120 mg dose in healthy male subjects; format: in vivo, human; settings: male, human, oral, 120 mg; regorafenib in plasma; geometric mean (%CV); N = 4; read-out: Vz/F
ENDPOINT NAME: Vd/F (L)
A number alone suffices; assume L.

Lab book: Vd/F of `CNC(=O)c1cc(Oc2ccc(NC(=O)Nc3ccc(Cl)c(C(F)(F)F)c3)c(F)c2)ccn1` noted as 216

* * *

tested on: human hepatocytes; test: In vitro metabolism of [14C]regorafenib in human hepatocytes; format: in vitro ADME; details: [14C]regorafenib 2 µM, 2 h
ENDPOINT NAME: Formation in human hepatocytes

> print(dat)
                                   molecule  target.or.test.system  measured.result
1  NC(=O)c1cc(Oc2ccc(NC(=O)Nc3ccc(Cl)c(C(F)(F)F)c3)c(F)c2)ccn1      human hepatocytes       identified
2  O=C(Nc1ccc(Cl)c(C(F)(F)F)c1)Nc1ccc(Oc2cc[n+]([O-])c(C(=O)NCO)c2)cc1F      human hepatocytes         observed
3  CNC(=O)c1cc(Oc2ccc(NC(=O)Nc3ccc(Cl)c(C(F)(F)F)c3)c(F)c2)cc[n+]1[O-]      human hepatocytes       identified
4  O=C(Nc1ccc(Cl)c(C(F)(F)F)c1)Nc1ccc(Oc2ccnc(C(=O)O)c2)cc1F      human hepatocytes       identified
5  CNC(=O)c1cc(Oc2ccc(NC(=O)N(c3ccc(Cl)c(C(F)(F)F)c3)C3OC(C(=O)O)C(O)C(O)C3O)c(F)c2)cc[n+]1[O-] (centres unmarked)      human hepatocytes         observed
6  CNC(=O)c1cc(Oc2ccc(NC(=O)N(c3ccc(Cl)c(C(F)(F)F)c3)C3OC(C(=O)O)C(O)C(O)C3O)c(F)c2)ccn1 (centres unmarked)      human hepatocytes       identified
7  NC(=O)c1cc(Oc2ccc(NC(=O)Nc3ccc(Cl)c(C(F)(F)F)c3)c(F)c2)cc[n+]1[O-]      human hepatocytes         observed

Please examine the following record next.
Looking up `O=C(Nc1ccc(Cl)c(C(F)(F)F)c1)Nc1ccc(Oc2ccnc(C(=O)NCO)c2)cc1F` , I found its Formation in human hepatocytes recorded as identified
